- TEST_SYSTEM: unphosphorylated c-FMS kinase (uFMS, Seq. ID no. 1) (Homo sapiens (Human), UniProt P07333)
- Sequence (P07333 538-972): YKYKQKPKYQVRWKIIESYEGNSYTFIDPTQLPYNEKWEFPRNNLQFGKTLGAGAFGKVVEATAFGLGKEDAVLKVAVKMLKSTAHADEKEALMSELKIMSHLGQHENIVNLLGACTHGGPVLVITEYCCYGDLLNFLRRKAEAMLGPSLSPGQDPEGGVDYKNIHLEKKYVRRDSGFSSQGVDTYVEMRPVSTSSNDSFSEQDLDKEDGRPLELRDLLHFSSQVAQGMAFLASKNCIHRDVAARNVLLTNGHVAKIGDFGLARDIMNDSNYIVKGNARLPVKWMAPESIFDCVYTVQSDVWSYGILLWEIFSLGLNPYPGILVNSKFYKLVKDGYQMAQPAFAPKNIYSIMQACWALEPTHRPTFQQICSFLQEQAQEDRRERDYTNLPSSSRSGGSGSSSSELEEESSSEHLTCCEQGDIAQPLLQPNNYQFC
- MEASUREMENT_NOTES: uFMS kinase assay (ADP production coupled to pyruvate kinase/lactate dehydrogenase)
- Type: biochemical
- MEASUREMENT_PARAMETERS: enzymatic assay, ATP 500 μM; read-out: uFMS
Quick reference for IC50 among some compounds

Cc1cn(-c2cc(Oc3ccc(NC(=O)N4CCN(CC(F)(F)F)C4=O)nc3)ccn2)cn1 | 10 to 100 nM
COC(C)(C)CCN1CCN(C(=O)Nc2ccc(Oc3ccnc(-c4cnn(C)c4)c3)cn2)C1=O | 10 to 100 nM
CCN1CCN(C(=O)Nc2ccc(Oc3ccnc(NC(C)=O)c3)c(C)n2)C1=O | 10 to 100 nM
Cn1cc(-c2cc(Oc3ccc(NC(=O)N4CCN(C5CCOC5)C4=O)nc3)ccn2)cn1 (stereo in doubt) | 10 to 100 nM
Cc1nc(NC(=O)N2CCN(C3CCCC3)C2=O)ccc1Oc1ccnc(-c2cnn(C)c2)c1 | < 10 nM
Cc1nc(NC(=O)N2CCN(C3CCOCC3)C2=O)ccc1Oc1ccnc(-c2cnn(C)c2)c1 | < 10 nM

Notebook: Cn1cc(-c2cc(Oc3cc(F)c(NC(=O)N4CCN(C5CCC(F)(F)CC5)C4=O)cc3Cl)ccn2)cn1 , IC50 read as < 10 nM

Notebook: Cc1ncc(-c2cc(Oc3ccc(NC(=O)N4CCN(C)C4=O)nc3C)ccn2)s1 , IC50 read as 100 to 1000 nM

Notebook: N#CCC(=O)Nc1cc(Oc2cc(F)c(NC(=O)N3CCN(C4CCOCC4)C3=O)cc2Cl)ccn1 , IC50 read as > 1000 nM

Notebook: Cc1nc(NC(=O)N2CC(C)(C)N(C3CCCCC3)C2=O)ccc1Oc1ccnc(-c2cnn(C)c2)c1 , IC50 read as 100 to 1000 nM

Notebook: O=C(Nc1cc(Cl)c(Oc2ccnc(-c3cn[nH]c3)c2)cc1F)N1CCN(C2CCOCC2)C1=O , IC50 read as 10 to 100 nM

Notebook: Cc1nc(NC(=O)N2CCN(CC(F)(F)F)C2=O)ccc1Oc1ccnc(-c2cnn(C)c2)c1 , IC50 read as < 10 nM

----------
- TEST_SYSTEM: unphosphorylated PDGFRβ kinase (uPDGFRβ, Seq. ID No. 3) (Homo sapiens (Human), UniProt P09619)
- Sequence (P09619 557-1106): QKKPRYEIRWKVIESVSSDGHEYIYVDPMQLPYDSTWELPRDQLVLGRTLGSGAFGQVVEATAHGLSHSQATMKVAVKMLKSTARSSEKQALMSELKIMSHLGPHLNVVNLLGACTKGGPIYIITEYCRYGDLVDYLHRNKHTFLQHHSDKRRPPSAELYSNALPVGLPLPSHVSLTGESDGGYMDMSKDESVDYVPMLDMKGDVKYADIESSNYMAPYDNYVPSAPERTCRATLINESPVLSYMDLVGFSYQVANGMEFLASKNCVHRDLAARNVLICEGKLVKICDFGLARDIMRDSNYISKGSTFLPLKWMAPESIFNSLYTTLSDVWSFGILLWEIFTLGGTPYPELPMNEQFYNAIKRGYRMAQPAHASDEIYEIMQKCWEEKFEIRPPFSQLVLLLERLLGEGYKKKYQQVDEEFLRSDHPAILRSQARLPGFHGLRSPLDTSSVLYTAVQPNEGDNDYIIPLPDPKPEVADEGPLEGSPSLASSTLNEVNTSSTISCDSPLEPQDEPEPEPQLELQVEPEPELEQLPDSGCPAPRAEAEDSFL
- MEASUREMENT_NOTES: Unphosphorylated PDGFRβ kinase assay (coupled pyruvate kinase/lactate dehydrogenase)
- MEASUREMENT_PARAMETERS: enzymatic assay, ATP 500 μM
pIC50: −log10 of the molar value.
ENDPOINT_NAME: pIC50

Cc1ccc(-c2cc(Oc3ccc(NC(=O)N4CCN(C5CCOCC5)C4=O)nc3C)ccn2)cn1 [Example 54] | 6.00 to 7.00
Cn1cc(-c2cc(Oc3ccc(NC(=O)N4CCN(C5CCCC5)C4=O)nc3)ccn2)cn1 [Example 30] | 6.00 to 7.00
CCN1CCN(C(=O)Nc2ccc(Oc3ccnc(-c4cnc(C)s4)c3)cn2)C1=O [Example 69] | < 6.00

Notebook: CC(=O)Nc1cc(Oc2ccc(NC(=O)N3CCN(C4CCOCC4)C3=O)nc2C)ccn1 [Example 121] , pIC50 read as 6.00 to 7.00

Notebook: CC(C)N1CCN(C(=O)Nc2ccc(Oc3ccnc(-c4cnn(C)c4)c3)cn2)C1=O [Example 36] , pIC50 read as 6.00 to 7.00

Notebook: Cn1cc(-c2cc(Oc3ccc(NC(=O)N4CCN(CCOC(F)(F)F)C4=O)nc3)ccn2)cn1 [Example 21] , pIC50 read as < 6.00

Notebook: CNC(=O)c1cc(Oc2ccc(NC(=O)N3CCN(C(C)(C)C)C3=O)nc2)ccn1 [Example 90] , pIC50 read as 7.00 to 8.00

Notebook: Cn1cc(-c2cc(Oc3ccc(NC(=O)N4CCN(CC(F)(F)F)C4=O)nc3)ccn2)cn1 [Example 48] , pIC50 read as 6.00 to 7.00

Notebook: Cc1cc(-c2cc(Oc3ccc(NC(=O)N4CCN(C5CCOCC5)C4=O)nc3)ccn2)on1 [Example 7] , pIC50 read as < 6.00

Notebook: CC(C)N1CCN(C(=O)Nc2ncc(Oc3ccnc(-c4cnn(C)c4)c3)cn2)C1=O [Example 2] , pIC50 read as < 6.00

Notebook: O=C(Nc1ccc(Oc2ccnc(-c3cn[nH]c3)c2)cn1)N1CCN(C2CCOCC2)C1=O [Example 5] , pIC50 read as 6.00 to 7.00

Notebook: COCCCN1CCN(C(=O)Nc2ccc(Oc3ccnc(-c4cnn(C)c4)c3)cn2)C1=O [Example 11] , pIC50 read as < 6.00
